Test system: clinical isolates of A. baumannii
Protocol summary: MIC for clinical isolates in RPMI (low iron) media (Table 4)
Type: cell-based
Reported conditions: Acinetobacter baumannii, AB4932, read-out: MIC of Iron Chelators
Result type: MIC (µg/mL)
Express your answer in µg/mL, writing the number without its unit.

Please report the recorded MIC for OCCN1CCN(CCc2ccc(O)c3ncccc23)CC1 .
125

Please report the recorded MIC for OCCN1CCN(Cc2ccc(O)c3ncccc23)CC1 .
8

Please report the recorded MIC for Cc1c(O)c(=O)ccn1C [ApoL1, 3-hydroxy-1,2-dimethyl-4(1H)-pyridone] .
64

Please report the recorded MIC for CNC(=O)c1c(O)c(=O)cc(C)n1C1CC1 .
250

Data credit: patent US10064858B2
